All values here come from PubChem BioAssay AID624331.

Protocol Details: qHTS assay for re-activators of p53 using a Luc reporter: Hit Validation with no p53 Expressed
Condition Info: p53-null cells, luciferase reporter counter-screen; series mostly up to 46.1 µM
Inconclusive results are not listed. Active and inactive are the calls of the source. The call rests on the fitted dose curve; in most records, active means well fitted activation curve with a large enough effect; inconclusive means small, poorly fitted or top-dose-only effect; inactive means no such curve, though single readings can be large or run the other way.

Line Notation: Cc1cc(CC(C)C)n(-c2nc3ccccc3c(=O)n2OCC(N)=O)n1
outcome: inactive
--
Line Notation: COCCCN(C(C)=O)c1nc(-c2ccc(OC)cc2)cs1
outcome: inactive
--
Line Notation: CCc1ccc(-n2cc(-c3ccc([N+](=O)[O-])cc3)[nH]c2=S)cc1
outcome: inactive
--
Line Notation: O=C(NCCOc1ccccc1F)c1cc(F)c(F)cc1Cl
outcome: inactive
--
Line Notation: Cc1ccc(C)c(N2CCN(C(=O)CCc3nc(-c4ccccc4C(F)(F)F)no3)CC2)c1
outcome: inactive
--
Line Notation: c1ccc(-n2ncc3c(N4CCCCC4)ncnc32)cc1
outcome: inactive
